Hey, just so you know, these numbers are from paper PMC11480844.

B1: H2-Kb / H6 (parent)
chain 1: AQKVTQTQTSISVMEKTTVTMDCVYETQDSSYFLFWYKQTASGEIVFLIRQDSYKKENATVGHYSLNFQKPKSSIGLIITATQIEDSAVYFCAMRDYNQGKLIFGQGTKLSIKP
chain 2: EAAVTQSPRSKVAVTGGKVTLSCHQTNNHDYMYWYRQDTGHGLRLIHYSYVADSTEKGDIPDGYKASRPSQENFSLILELASLSQTAVYFCASSGTAANSDYTFGSGTRLLVI
chain 3: not shown
chain 4: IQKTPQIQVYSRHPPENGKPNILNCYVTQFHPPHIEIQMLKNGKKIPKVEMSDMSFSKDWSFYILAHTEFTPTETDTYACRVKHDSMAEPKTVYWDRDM
chain 5: SIINFEKL

Variants of: B1
assay info: % of reporter cells activated (NFAT-GFP), raw; also: test concentration or dose not given here
test settings: with H6; scale: % of reporter cells activated
readout label: ratio to parent

var | assay value
chain 5 I2Q | 0.385
chain 5 E6H | 0.0877

(P) chain 5 L8G
(Q) chain 5 N4D
Of P and Q , which carries the smaller reported ratio to parent figure? Indicate your choice by writing its label.
Q
